- Test system: SN12C renal
- experimentalDetails: NCI-60 one-dose screen, 48 h (100 = growth as untreated, 0 = no growth, -100 = all killed)
- runConditions: 10 µM
This is part of a sample that, as a whole, favours compounds with a hit. Of some 83,000 tested, about 20% had one in any assay.
measuredAttribute: growth (%)

compound	unitsText	number
O/N=C1\CCC2CCCCC2C1 (configuration not stated)	%	113
Cc1cccc2c1O/C(=C\c1ncc([N+](=O)[O-])n1C)C2=O	%	-48.5
NCCNc1ccc2cc(-c3nc4ccccc4[nH]3)c(=O)oc2c1	%	92.2
CCNC1(NC#N)CCCCC1	%	100
CC(Oc1ccc(Cl)cc1)c1ccccc1 (configuration not stated)	%	98.1
O=C(Nc1ccc(CN2CCOCC2)cc1)c1ccc(-c2cc(Cl)ccc2Cl)o1	%	63.4
COc1cc(OC)cc(N2CCN(C(=O)Nc3nc4cc(F)ccc4nc3OC)CC2)c1	%	29.6
COc1cccc(C2(C)Nc3ccccc3-c3nc4ccccc4n32)c1 (configuration not stated)	%	100
Cn1cnc([N+](=O)[O-])c1/C=C1\Oc2ccc(Cl)cc2C1=O	%	98.9
C[N+]1(CC2CO2)CCCCCC1 (configuration not stated)	%	102
Cc1cnc(C=O)c2cccc([N+](=O)[O-])c12	%	86.8
COc1cc(C2C(C#N)=C(c3c[nH]c4ccccc34)Nc3nc(N)[nH]c(=O)c32)cc(OC)c1OC (configuration not stated)	%	90.9

* * *

- Tested on: NCI-H322M lung
- experimentalDetails: NCI-60 one-dose screen, 48 h (100 = growth as untreated, 0 = no growth, -100 = all killed)
- runConditions: 10 µM
Compounds without any hit were thinned out: in the full panel of roughly 83,000, 20% have a hit.
Classify by measured growth: Fulfilled if it is equal to or exceeds 80%, Not fulfilled if it is smaller.

molecule	assignedLabel
Cc1cc(C)c2c(Nc3ncnc4c3sc3nc(C)cc(C)c34)n[nH]c2n1	Fulfilled
Cc1cn(C(=O)/C(Cl)=C(/Cl)C(=O)O)c2ccccc12	Fulfilled
CC1(CO)CCCC12OCCO2 (stereo not given)	Fulfilled
COc1cc(CSc2nc3ccc(C)cc3c(=O)n2-c2ccccc2)cc(OC)c1OC	Not fulfilled
COC(=O)[C@]12CC[C@@H](C)[C@H](C)[C@@H]1C1=CC[C@@H]3[C@@]4(C)CC(=O)[C@H](O)[C@@]5(C)COC(=C45)C[C@@]3(C)[C@]1(C)CC2	Not fulfilled
Cn1cnc([N+](=O)[O-])c1/C=C1\Oc2ccc(Cl)cc2C1=O	Fulfilled
N/C(=N\O)c1cn(C2OC(CO)C(O)C2O)c2ncnc(N)c12 (stereo not given)	Not fulfilled
O=C(COc1ccc(-c2nc3ccccc3[nH]2)cc1)N=Nc1c(O)[nH]c2ccccc12	Fulfilled
O=C(c1ccccc1)C(Sc1ccccc1)c1ccccc1 (stereo not given)	Fulfilled

* * *

- Test system: MOLT-4 leukemia
- experimentalDetails: NCI-60 one-dose screen, 48 h (100 = growth as untreated, 0 = no growth, -100 = all killed)
- runConditions: 10 µM
Compounds without any hit were thinned out: in the full panel of roughly 83,000, 20% have a hit.
// class assignment uses growth with these ranges: label 0 = under 20%, label 1 = from 20% up to 40%, label 2 = 40% and over

molecule	assignedLabel
Cc1ccc(-c2cc(C(=O)Nc3ccc(S(=O)(=O)N4CCCCC4)cc3)[nH]n2)c(O)c1	label 1
CCOC(=O)c1cc2c(n1Cc1cc(OC)cc(OC)c1)-c1oncc1CC2	label 1
O=NN(CCCl)C(=O)Nc1ccc(NC(=O)N(CCCl)N=O)cc1	label 2
Cc1nc(Nc2nc3ccccc3o2)nc(-c2cccc([N+](=O)[O-])c2)c1C(=O)Nc1ccc(F)c(Cl)c1	label 0
COc1ccc(C2=Cc3ccc(OC(C)=O)cc3OC2)cc1	label 2
CC(=O)Oc1ccc(C2=Cc3ccc(OC(C)=O)cc3OC2C)cc1 (stereo not given)	label 1
O=S(=O)(NC1c2ccccc2Oc2ccccc21)c1ccccc1	label 2
CCOC(=O)c1c(C(F)(F)F)n([O-])c2ccc(OC)cc2[n+]1=O	label 0
CCOC(=O)c1sc(NC(=O)c2cc(OC)c(OC)c(OC)c2)nc1C	label 2
N=C(N)c1ccc(-c2ccc(-c3ccccc3)s2)cc1F	label 0

* * *

- System: HOP-62 NSCLC
- experimentalDetails: NCI-60 one-dose screen, 48 h (100 = growth as untreated, 0 = no growth, -100 = all killed)
- runConditions: 10 µM
About 83,000 compounds went through this panel and 20% of them were active in at least one assay; those are over-represented in the sample as a whole.
measuredAttribute: growth (%)

compound	measuredAttribute	number
COc1ccc(C2C=C(c3ccc(Cl)c(Cl)c3)N=C3SC(C)=CN32)cc1OC (centres undefined)	growth	82.3
N#CN1CC[C@H](C(=O)Nc2ncc(-c3ccccc3)s2)C1	growth	-3.88
Cc1cn(C(=O)/C(Cl)=C(/Cl)C(=O)O)c2ccccc12	growth	88
O=C(COc1ccc(-c2nc3ccccc3[nH]2)cc1)N=Nc1c(O)[nH]c2ccccc12	growth	105
CS(=O)(=O)Nc1ccc(OCc2nnc(-c3ccc(Cl)cc3)o2)c(F)c1	growth	87.2
COc1ccc(-c2n/c(=C\c3c(O)[nH]c4ccccc34)cc3c2=Nc2ccccc2-3)cc1	growth	86.2
COc1ccc2nc(C)cc(Nc3ccc(Cl)cc3)c2c1	growth	104
CC(=O)OC1Oc2ccccc2-c2oc(=O)c(-c3cc(=O)oc4cc(O)ccc34)cc21 (centres undefined)	growth	93.8
Nc1ccc2c(c1)Cc1cc(N)c(Cl)cc1-2	growth	109
O=C1NN(c2ccccc2)C(c2cccnc2)=N/C1=C\c1cccnc1	growth	92
CCOc1ccc2c(c1)CC[C@@H]1[C@@H]2CC[C@]2(C)[C@@H](O)[C@@H](O)C[C@@H]12	growth	114
COc1ccc(Cn2cc3c(c2-c2cc(OC)c(OC)c(OC)c2)CCc2cnoc2-3)cc1[N+](=O)[O-]	growth	56.6
COc1ccc(C2=Cc3ccc(OC(C)=O)cc3OC2)cc1	growth	109
O=C(O)c1ccc(CNc2ccc(C(=O)CCl)cc2)cc1	growth	98.5
CC(C)=C1CCC(C)C/C1=N\N=C(N)N (centres undefined)	growth	101
Cc1ccc(-c2cc(-c3cccc(Nc4ccnc5cc(Cl)ccc45)c3)nc3nc(N)[nH]c(=O)c23)cc1	growth	113
CCc1ccc(-c2nnc(COc3ccc(-c4nc5ccccc5[nH]4)cc3OC)o2)cc1	growth	83.2
CCCCCCOc1ccc(/C=C/C(=O)c2ccc(B(O)O)cc2)cc1	growth	89.8
CCOc1cc(Br)c(C(C)NC(=O)c2cccc(OC)c2)cc1OCC (centres undefined)	growth	87.3
NC1CCC(Nc2nc(NCc3ccc(-c4cccs4)nc3)c3ncn(C4CCCC4)c3n2)CC1 (centres undefined)	growth	-2.05
CC(C)C[C@H](NC(=O)CCn1ccc2ccccc2c1=O)B(O)O	growth	82.7
c1ccc(CNc2nc(Nc3ccc(-c4nc5ccccc5[nH]4)cc3)c3cn[nH]c3n2)cc1	growth	-17.4
O=C(Nc1cccc([N+](=O)[O-])c1)NN1CCCCCC1	growth	111
COc1ccccc1NC1=C(N2CCCCC2)C(=O)c2ccccc2C1=O	growth	98.8
COc1ccc(Cn2cc3c(c2-c2ccccc2)CC(C)(C)c2cnoc2-3)cc1	growth	34.2
CCCCCCCCCCCCCC[n+]1ccc(C)cc1	growth	-39.2
Nc1ccc(C2=CC(c3ccc(Cl)cc3)N3C=CSC3=N2)cc1 (centres undefined)	growth	-63.8
CCCCCCCOc1cccc(/C=C2/C(=O)N=C3SCCCN32)c1	growth	85.7
N#Cc1c(-c2ccccc2)nc(SCC(=O)N2CCOCC2)[nH]c1=O	growth	83.7
CC(=O)/C(=C\c1ccc(Cl)cc1)c1ccccc1	growth	32
COC(=O)[C@]12CC[C@@H](C)[C@H](C)[C@@H]1C1=CC[C@@H]3[C@@]4(C)C/C(=N\O)[C@H](O)[C@@]5(C)COC(=C45)C[C@@]3(C)[C@]1(C)CC2	growth	-96.7
CCC(O)c1ccc(Br)cc1NC(=O)c1cccc(Cl)c1 (centres undefined)	growth	28
COc1ccc(-c2cc(/C=C3\C(=O)Nc4cc(Cl)ccc43)[nH]n2)cc1OC	growth	75
Cc1ccc(S(=O)(=O)Nc2cccc3[nH]c(C(F)(F)F)nc23)cc1	growth	36.4
COc1ccc(Nc2nc(NCc3ccccc3)c3ccccc3n2)cc1	growth	-48
Cc1cc2cc3c(=O)[nH]c(=O)cc-3n(CC(O)C(O)C(O)CO)c2cc1C (centres undefined)	growth	81.1
C#CCNCCCN1C(=O)c2ccc3c4c(ccc(c24)C1=O)C(=O)N(CCCNCC#C)C3=O	growth	-67.8
CC(C)C(C)C(N)C(=O)O (centres undefined)	growth	89.9
Cc1cccc2c1O/C(=C\c1ncc([N+](=O)[O-])n1C)C2=O	growth	-33.5
